- Experiment Summary: qHTS of pediatric cancer cell lines to identify multiple opportunities for drug repurposing: Confirmatory screen for MG 63 (6-TG R) cells (AID 1347119); note: nearly all actives have a fitted effect of over 55% in size; note: potency is the fitted concentration of half-maximal effect
- Measurement Parameters: MG-63 (6-TG resistant) osteosarcoma viability; series mostly up to 45.9 µM
Inconclusive results are not listed. Activity calls are given as the source filed them. Calls come from the whole dose curve; as a rule, active = well fitted cell-killing curve with a large enough effect; inconclusive = small, poorly fitted or top-dose-only effect, or effect the other way; inactive = no such curve, though single readings can be large or run the other way. Numbered stars: 1 amine (or outer) side, 2 acyl side, 3 side chain; on linkers, the order of the positions; unused ones are H or OH. Bridge positions count the residues as written; N and C are the ends. Square brackets hold non-standard residues; d marks the D form. Peptide text beside a SMILES is read from it. I, II: the chains in the order shown. Actinocin(9to1) = Cc1c2oc3c(C)ccc(C(=O)[*:1])c3nc-2c(C(=O)[*:2])c(N)c1=O; NMeV = CN[C@H](C(=O)O)C(C)C; Sar = CNCC(=O)O
Observable: Potency

See these solved cases before continuing.
CC(=O)OCC(=O)[C@@]12OC(C)(C)O[C@@H]1C[C@H]1[C@@H]3C[C@H](F)C4=CC(=O)C=C[C@]4(C)[C@@]3(F)[C@@H](O)C[C@@]12C; inactive
CC(=O)Oc1ccc(C(c2ccc(OC(C)=O)cc2)c2ccccn2)cc1; 1.17 µM (active)
OC[C@H]1O[C@@H](n2cnc3c(=S)nc[nH]c32)[C@H](O)[C@@H]1O; inactive
CC1(C)O[C@@H]2C[C@H]3[C@@H]4C[C@H](F)C5=CC(=O)CC[C@]5(C)[C@H]4[C@@H](O)C[C@]3(C)[C@]2(C(=O)CO)O1; inactive

Lab note: each molecule below needs its Potency filled in.
1. NC(CO)(CO)CO
2. Cc1c2oc3c(C)ccc(C(=O)N[C@@H]4C(=O)N[C@H](C(C)C)C(=O)N5CCC[C@H]5C(=O)N(C)CC(=O)N(C)[C@@H](C(C)C)C(=O)O[C@@H]4C)c3nc-2c(C(=O)N[C@@H]2C(=O)N[C@H](C(C)C)C(=O)N3CCC[C@H]3C(=O)N(C)CC(=O)N(C)[C@@H](C(C)C)C(=O)O[C@@H]2C)c(N)c1=O (I: T[dV]P[Sar][NMeV] / II: T[dV]P[Sar][NMeV]; ester I:1-I:C, II:1-II:C; linker I:N-II:N via Actinocin(9to1))
3. COc1cc(C=C2CCC/C(=C\c3ccc(O)c(OC)c3)C2=O)ccc1O
4. CC(=O)O[C@]1(C(C)=O)CC[C@H]2[C@@H]3C[C@H](C)C4=CC(=O)CC[C@]4(C)[C@H]3CC[C@@]21C

OUTPUT:
1: inactive; 2: 0.0329 µM (active); 3: 20.8 µM (active); 4: inactive
